B1: MYL5 (parent)
chain: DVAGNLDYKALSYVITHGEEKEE

Variants of: B1
assay.explanation: protein stability index of a GFP-peptide fusion (GPS, HEK-293T) (PSI 1-6); higher = more stable;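 further: lentivirally expressed fusions sorted by FACS into six bins by GFP to DsRed ratio, PSI derived from sequencing read proportions per bin multiplied by bin number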
condition.set: c terminus: native
Reported protein stability index values are given for each entry in this list.

Sample answers from the record:
DVAGNLHYKALSYVITHGEEKEE [D7H]
2.83
DVAGNLDYKALSYVITHGEDKEE [E20D]
1.91
DVAHNLDYKALSYVITHGEEKEE [G4H]
2.09
DVAGNLDYKALSYVITHGEEKSE [E22S]
4.46
DVAGNLFYKALSYVITHGEEKEE [D7F]
1.04

Please look up its protein stability index: DVAGNLDYKALQYVITHGEEKEE [S12Q]
1.7

Dear colleague, I am looking for the recorded protein stability index of the following variant: DVAGNLDYKALSQVITHGEEKEE [Y13Q]
2.33

Could you share which protein stability index value was measured for DVDGNLDYKALSYVITHGEEKEE [A3D] ?
1.87
